// values below are reported TGI
System: SK-MEL-5 melanoma
Test: NCI tumour cell line growth inhibition, 48 h
Express the result in µM but write the number alone.

Solved cases (8 shown):
# COMPOUND, TGI, µM
records = [
    ("CN(C)C(=O)Oc1c(Br)cc(Br)cc1C(=O)OCc1ccccc1", 17.7),
    ("O=C(CCBr)N1CCN(C(=O)CCBr)CC1", 149),
    ("Cn1c2ccc(F)cc2c2ccc3c(c21)C(=O)C=CC3=O", 56.4),
    ("CC(=O)O[C@H]1C(=O)[C@@]2(C)[C@H]([C@H](OC(=O)c3ccccc3)[C@]3(O)C[C@H](OC(=O)[C@H](O)[C@@H](NC(=O)c4ccccc4)c4ccc5ccccc5c4)C(C)=C1C3(C)C)[C@]1(OC(C)=O)CO[C@@H]1C[C@@H]2O", 12.9),
    ("COc1cc(C2c3cc4c(cc3OC(NNc3ccccc3)C2C)OCO4)cc(OC)c1OC (stereo not drawn)", 21),
    ("Cc1cc2cc3cc(C)c(N)cc3nc2cc1N", 14.6),
    ("O=C1/C(=C/c2ccc(Cl)cc2)Oc2cc(O)ccc21", 51.5),
    ("CCOC(=O)/C=C(/C(=O)OCC)n1cc(C)c(=O)n(Cc2cnnn2COCCOC(C)=O)c1=O", 51.5),
]

Please look up its TGI: O=C([O][Hg][c]1ccccc1)c1ccccc1
3.06

What would you report for Nc1nc(N)c(CCCCc2ccccc2)c(C=O)n1 ?
34.9

What would you report for N[C@H]1c2c(Br)sc(Br)c2C(=O)[C@H]1O ?
41.8

What would you report for CCCCCCCCCCNCCSSCc1ccc(Cl)cc1 ?
1.88

What would you report for COC1=CC(c2ccc[nH]2)=N/C1=C\c1[nH]c(C)c(C(=O)CCC(=O)Oc2ccc3c(c2)CCC2C3CC[C@]3(C)[C@@H](O)CC[C@@H]23)c1C (stereo partly drawn) ?
2.91
